Documented melting point across a set of compounds
Where a name gives a salt, the structure may show the parent alone.

Answered examples (3):
{"Compound": "Cn1c(CNCC2CCOC2)cc2cc(NC(=O)c3ccc(OCC4CCOC4)cc3)ccc21 (stereo not shown)", "Endpoint Result": "131 to 133 °C"}
{"Compound": "Cc1c(NC(=O)c2ccc(OC[C@@H]3CCCO3)cc2)ccc2c1cc(CN[C@H]1CC[C@](C)(O)CC1)n2C", "Endpoint Result": "200 °C"}
{"Compound": "Cc1c(CNCC2CCOCC2)[nH]c2c(C)c(NC(=O)c3ccc(OC[C@@H]4CCCO4)cc3)ccc12", "Endpoint Result": "184 to 185 °C"}

Sample Cc1c(NC(=O)c2ccc(OC[C@@H]3CCCO3)cc2)ccc2cc(CNCC3CCOCC3)n(C)c12 — what was its melting point?
197 to 198 °C

Sample Cc1c(NC(=O)c2ccc(OC[C@@H]3CCCO3)cc2)ccc2cc(CN3CCC(C)(O)CC3)[nH]c12 — what was its melting point?
169 °C

Which melting point value belongs to Cn1c(CNCC(C)(C)C)cc2cc(NC(=O)c3ccc(OC[C@@H]4CCCO4)cc3)ccc21 (as salt: acetate) ?
150 to 151 °C

# melting point lookup, item CC1(CNCc2cc3cc(NC(=O)c4ccc(OCC5CC5)cc4)ccc3[nH]2)COC1
166 to 167 °C

###

# melting point per record follows

Completed entries (count: 5):
{"Compound": "Cc1c(NC(=O)c2ccc(C#CC3(O)CCC3)cc2)ccc2cc(CNCC(C)C)n(C)c12 [Example 92]", "melting point": "222 to 223 °C"}
{"Compound": "Cc1c(CNCC(C)C)[nH]c2c(F)c(NC(=O)c3ccc(OC[C@@H]4CCCO4)cc3)ccc12 [Example 104]", "melting point": "134 to 135 °C"}
{"Compound": "Cn1c(CNC[C@H]2CCCO2)cc2cc(NC(=O)c3ccc(OCC4CC4)cc3)ccc21 [Example 10]", "melting point": "138 to 139 °C"}
{"Compound": "Cc1c(CN[C@H]2CC[C@](C)(O)CC2)[nH]c2c(C)c(NC(=O)c3ccc(OC[C@@H]4CCCO4)cc3)ccc12 [Example 99]", "melting point": "134 to 135 °C"}
{"Compound": "Cn1c(CNCC(C)(C)O)cc2cc(NC(=O)c3ccc(OCC4CCOC4)cc3)ccc21 (centres unmarked) [Example 25]", "melting point": "169 °C"}

Give its melting point value. Item: Cn1c(CN[C@H]2CC[C@](C)(O)CC2)cc2cc(NC(=O)c3ccc(OCC4CCOC4)cc3)ccc21 (some centres unmarked) [Example 24]
181 to 182 °C

Which melting point is reported for this compound? Cc1c(NC(=O)c2ccc(OC[C@@H]3CCCO3)cc2F)ccc2cc(CNCC(C)(C)O)[nH]c12 [Example 76]
148 to 149 °C

So what's the measured melting point for this one? Cc1c(NC(=O)c2ccc(OC[C@@H]3CCCO3)cc2)ccc2c1cc(CNCC(C)C)n2C [Example 54]
162 °C

###

# Measured On: human MCHR1 (Homo sapiens, UniProt Q99705)
# Construct: expressed in transfected cells; host or cells: CHO cell clone 57 (membrane fraction)
# Sequence (Q99705 whole entry): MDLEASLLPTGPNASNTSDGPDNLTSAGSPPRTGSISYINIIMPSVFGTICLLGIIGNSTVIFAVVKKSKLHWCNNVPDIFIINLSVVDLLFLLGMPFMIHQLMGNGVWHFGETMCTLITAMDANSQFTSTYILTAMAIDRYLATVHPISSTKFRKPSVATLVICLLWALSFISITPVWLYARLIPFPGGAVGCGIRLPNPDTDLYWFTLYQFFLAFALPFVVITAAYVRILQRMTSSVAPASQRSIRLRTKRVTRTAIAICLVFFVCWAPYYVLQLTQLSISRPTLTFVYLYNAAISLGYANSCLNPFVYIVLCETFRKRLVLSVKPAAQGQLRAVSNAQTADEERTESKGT
# Assay: Human MCH receptor 1 (MCHR1) competitive binding assay, [125I]-MCH(4-19), CHO cell membrane fraction
# Condition Notes: test compound 0.1 μM, human MCHR1-expressing CHO cell membrane, 25° C., 1 hr, read-out: Binding inhibition rate (0.1 μM)
# Procedure: Determination of Human MCH Receptor 1 (MCHR1) Competitive Inhibitory Activity of Test Compound Using Binding Assay […] The MCHR1 ligand binding inhibitory activity of the test compound was determined as follows. […] The glass filter plate was dried, a liquid scintillator was added at 25 μL/well, and the residual radioactivity was measured by TopCount (PerkinElmer). The binding inhibition rate of the test compound was calculated by the following formula. […]
Readout: inhibition at 0.1 µM (%)

{"Molecule": "Cn1c(CNC2CCS(=O)(=O)CC2)cc2cc(NC(=O)c3ccc(OCC4CC4)cc3)ccc21 [Example 6]", "inhibition at 0.1 µM [%]": 82}
{"Molecule": "Cc1c(NC(=O)c2ccc(OC[C@@H]3CCCO3)cc2F)ccc2c1cc(CNCC(C)(C)O)n2C [Example 60]", "inhibition at 0.1 µM [%]": 98}
{"Molecule": "Cc1c(NC(=O)c2ccc(OC[C@@H]3CCCO3)cc2)ccc2c1cc(CNCC(C)(C)C)n2C [Example 51]", "inhibition at 0.1 µM [%]": 92}
{"Molecule": "Cn1c(CN[C@H]2CC[C@](C)(O)CC2)cc2cc(NC(=O)c3ccc(OCC4CC4)cc3)ccc21 [Example 12]", "inhibition at 0.1 µM [%]": 98}
{"Molecule": "Cn1c(CNCC2CCOC2)cc2cc(NC(=O)c3ccc(OC[C@@H]4CCCO4)cc3)ccc21 (stereo partly drawn) [Example 20]", "inhibition at 0.1 µM [%]": 91}
{"Molecule": "Cc1c(NC(=O)c2ccc(OC[C@@H]3CCCO3)cc2)ccc2cc(CNCC3CCOCC3)[nH]c12 [Example 70]", "inhibition at 0.1 µM [%]": 95}
{"Molecule": "Cc1c(NC(=O)c2ccc(OCC3CC3)cc2)ccc2cc(CNCC(C)(C)O)n(C)c12 [Example 78]", "inhibition at 0.1 µM [%]": 91}
{"Molecule": "Cc1c(NC(=O)c2ccc(OC[C@@H]3CCCO3)cc2)ccc2cc(CN[C@H]3CC[C@](C)(O)CC3)n(C)c12 [Example 84]", "inhibition at 0.1 µM [%]": 101}
{"Molecule": "Cn1c(CNCC2CCOCC2)cc2cc(NC(=O)c3ccc(OC[C@@H]4CCCO4)cc3)ccc21 [Example 17]", "inhibition at 0.1 µM [%]": 97}
{"Molecule": "Cc1c(NC(=O)c2ccc(OCC3CC3)cc2)ccc2c1cc(CNCC(C)(C)O)n2C [Example 50]", "inhibition at 0.1 µM [%]": 97}
{"Molecule": "Cc1c(NC(=O)c2ccc(OCC3CC3)cc2)ccc2cc(CN[C@H]3CC[C@](C)(O)CC3)[nH]c12 [Example 67]", "inhibition at 0.1 µM [%]": 101}
{"Molecule": "Cc1c(NC(=O)c2ccc(OC[C@@H]3CCCO3)cc2)ccc2cc(CNCC3CCOCC3)n(C)c12 [Example 83]", "inhibition at 0.1 µM [%]": 99}
{"Molecule": "Cc1c(NC(=O)c2ccc(OC[C@@H]3CCCO3)cc2)ccc2cc(CN3CCC(C)(O)CC3)[nH]c12 [Example 75]", "inhibition at 0.1 µM [%]": 94}
{"Molecule": "Cc1c(NC(=O)c2ccc(OC[C@@H]3CCCO3)cc2)ccc2c1cc(CN[C@H]1CC[C@](C)(O)CC1)n2C [Example 53-2]", "inhibition at 0.1 µM [%]": 97}
{"Molecule": "Cc1c(NC(=O)c2ccc(OC[C@@H]3CCCO3)cc2)ccc2cc(CN3CCCC3)[nH]c12 [Example 74]", "inhibition at 0.1 µM [%]": 91}
